- target.desc: human keratin (human)
- assay.summary: batch affinity chromatography, peptide on Toyopearl resin, human keratin in solution, Langmuir fit
Bridges are numbered along the chain shown (N, C = ends). Where no end group is shown, it is not given here.
Outcome label depends on Experimental Qmax relative to 4 mg/mL resin: at/above gives class 1, below gives class 0.

{"columns": ["binder", "cat"],
 "data": [
  ["ACTSTGRNACG (disulfide 2-10 (inferred)) [SP7-4 (…)]", "class 0"],
  ["ACSATLQHSCG (disulfide 2-10 (inferred)) [SP7-1 (…)]", "class 1"]
]}
